System: Bacteria
assayDetails: Inhibition of bacterial ImiS expressed in Escherichia coli BL21 (DE3) at 20 uM using imipenem as substrate by spectrometry analysis relative to control
// values below are reported inhibition

Please tell me the measured inhibition for "CC(C)(C)c1ccc(C(=O)Nc2cccc(S(N)(=O)=O)c2)cc1" ; system: Bacteria.
> 70%

New cases:
GET inhibition | system: Bacteria | item: "NS(=O)(=O)c1ccc(NC(=O)CC(c2ccccc2)c2ccccc2)cc1"
> 70%

Recall the reported inhibition of "NS(=O)(=O)c1ccccc1NC(=O)c1ccc(Cl)cc1" on Bacteria and write it down.
> 70%
